Data origin, for the record: patent US20180230213A1

- tested_on: T1, monomeric recombinant human Notch3 extracellular domain (containing EGF like domains 1-11) fusion protein (human, UniProt Q9UM47 40-467)
- T1 construct: domain: EGF like domains 1-11; also called monomeric rhNotch3
- T1 sequence (looked up): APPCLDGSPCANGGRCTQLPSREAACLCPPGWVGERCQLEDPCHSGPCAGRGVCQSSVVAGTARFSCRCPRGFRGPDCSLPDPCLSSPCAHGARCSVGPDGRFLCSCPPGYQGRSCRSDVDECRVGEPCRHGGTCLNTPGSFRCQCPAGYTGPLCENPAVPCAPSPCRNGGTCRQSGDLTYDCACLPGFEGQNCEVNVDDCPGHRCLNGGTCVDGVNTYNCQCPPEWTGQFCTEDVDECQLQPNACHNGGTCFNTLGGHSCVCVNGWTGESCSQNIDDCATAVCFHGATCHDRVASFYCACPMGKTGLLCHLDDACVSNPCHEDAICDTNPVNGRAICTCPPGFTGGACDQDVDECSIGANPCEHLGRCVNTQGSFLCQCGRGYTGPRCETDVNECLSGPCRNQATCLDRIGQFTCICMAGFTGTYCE
- assay_explanation: SPR BIAcore T100, monomeric rhNotch3 analyte, 37 C, average of Table 16 and additional measurements
measure_name: koff (s⁻¹)

>  <binder>
Hu4F11-78 (antibody, human IgG1, kappa, V domains shown, Humanized, human IgG1 kappa; Hv3-23 A28T S31H T62S heavy + Kv2D-29 N28Q kappa) VH: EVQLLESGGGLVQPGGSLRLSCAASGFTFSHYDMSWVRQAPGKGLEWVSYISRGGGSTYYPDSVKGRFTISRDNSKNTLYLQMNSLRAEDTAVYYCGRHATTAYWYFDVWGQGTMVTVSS VL: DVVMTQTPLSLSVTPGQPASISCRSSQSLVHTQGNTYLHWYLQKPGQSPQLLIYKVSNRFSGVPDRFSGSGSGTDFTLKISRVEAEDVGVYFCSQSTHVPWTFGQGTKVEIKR

>  <measure_name>
koff

>  <value>
0.006

$$$$
>  <binder>
Hu4F11-76 (antibody, human IgG1, kappa, V domains shown, Humanized, human IgG1 kappa; Hv3-23 S31H T62S heavy + Kv2D-29 N28Y kappa) VH: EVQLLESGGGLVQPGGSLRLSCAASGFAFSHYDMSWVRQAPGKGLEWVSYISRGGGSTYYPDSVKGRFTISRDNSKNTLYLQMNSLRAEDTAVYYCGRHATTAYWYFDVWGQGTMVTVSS VL: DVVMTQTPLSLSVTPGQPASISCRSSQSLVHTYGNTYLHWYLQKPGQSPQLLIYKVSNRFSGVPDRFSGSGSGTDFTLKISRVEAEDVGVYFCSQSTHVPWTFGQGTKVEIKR

>  <measure_name>
koff

>  <value>
0.0064

$$$$
>  <binder>
Hu4F11-79 (antibody, human IgG1, kappa, V domains shown, Humanized, human IgG1 kappa; Hv3-23 A28T T62S heavy + Kv2D-29 N28Q kappa) VH: EVQLLESGGGLVQPGGSLRLSCAASGFTFSSYDMSWVRQAPGKGLEWVSYISRGGGSTYYPDSVKGRFTISRDNSKNTLYLQMNSLRAEDTAVYYCGRHATTAYWYFDVWGQGTMVTVSS VL: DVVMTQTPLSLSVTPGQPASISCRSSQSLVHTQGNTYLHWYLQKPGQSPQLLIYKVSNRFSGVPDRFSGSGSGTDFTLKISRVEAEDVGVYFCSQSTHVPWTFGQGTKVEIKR

>  <measure_name>
koff

>  <value>
0.0091

$$$$
>  <binder>
Hu4F11-32 (antibody, human IgG1, kappa, V domains shown, Humanized, human IgG1 kappa; Sh4F11 Hv3-23 heavy + Hu4F11 Kv2D-29 kappa) VH: EVQLLESGGGLVQPGGSLRLSCAASGFAFSSYDMSWVRQAPGKGLEWVSYISRGGGSTYYPDTVKGRFTISRDNSKNTLYLQMNSLRAEDTAVYYCGRHATTAYWYFDVWGQGTMVTVSS VL: DVVMTQTPLSLSVTPGQPASISCRSSQSLVHTNGNTYLHWYLQKPGQSPQLLIYKVSNRFSGVPDRFSGSGSGTDFTLKISRVEAEDVGVYFCSQSTHVPWTFGQGTKVEIKR

>  <measure_name>
koff

>  <value>
0.084

$$$$
>  <binder>
Hu4F11-73 (antibody, human IgG1, kappa, V domains shown, Humanized, human IgG1 kappa; Hv3-23 A28T S31N T62S heavy + Kv2D-29 N28Y kappa) VH: EVQLLESGGGLVQPGGSLRLSCAASGFTFSNYDMSWVRQAPGKGLEWVSYISRGGGSTYYPDSVKGRFTISRDNSKNTLYLQMNSLRAEDTAVYYCGRHATTAYWYFDVWGQGTMVTVSS VL: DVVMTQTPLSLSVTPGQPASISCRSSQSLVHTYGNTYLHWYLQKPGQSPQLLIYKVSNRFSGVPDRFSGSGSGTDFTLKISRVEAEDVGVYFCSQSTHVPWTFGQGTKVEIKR

>  <measure_name>
koff

>  <value>
0.0046

$$$$
